Origin of values: paper PMC11243693

System: Staphylococcus epidermidis ATCC 12228
Assay: Broth microdilution, S. epidermidis ATCC 12228
Format: cell-based
Settings: Se 12228
Method: The antibacterial activity of the obtained thiosemicarbazides and hydrazide–hydrazones was determined by evaluating their ability to inhibit microbial growth in vitro using the broth microdilution method, according to the guidelines of the European Committee on Antimicrobial Susceptibility Testing (EUCAST). […] After incubation, the spectrophotometric absorbance at 570 nm in each well of the plate was read. […]
Hi there, I'd appreciate the recorded MBC for every entry that follows.
Lab book: enter the figure in µg/mL, no units written.

Item Cn1cc([N+](=O)[O-])nc1C(=O)NNC(=S)Nc1ccc(C(F)(F)F)cc1 : provide MBC 500

Identify the reported MBC for the following entry. Cn1cc([N+](=O)[O-])nc1C(=O)NNC(=S)Nc1ccccc1 1000

Give recorded MBC. Cn1cc([N+](=O)[O-])nc1C(=O)NNC(=S)Nc1ccccc1F 500

Hello, please tell me recorded MBC for this one: Cc1ccccc1NC(=S)NNC(=O)c1nc([N+](=O)[O-])cn1C 500

Determine its reported MBC: Cn1cc([N+](=O)[O-])nc1C(=O)NNC(=S)Nc1ccccc1Cl 500

Specify measured MBC for Cn1cc([N+](=O)[O-])nc1C(=O)NNC(=S)Nc1cccc(Cl)c1 . 125
